# System: RL
# Experimental details: Cytotoxicity against human RL cells after 72 hrs by MTS assay
# Format: functional, cell-based
Measurement label: IC50 (µM)

# Compound, Reading qualifier, Endpoint result
rows = [
    ("Cc1c(F)c(=O)[nH]c(=O)n1[C@@H]1O[C@H](COP(=O)(N[C@@H](C)C(=O)OCC(C)(C)C)Oc2cccc3ccccc23)[C@@H](O)[C@H]1O (stereo partly specified)", ">", 50),
    ("Cc1c(F)c(=O)[nH]c(=O)n1[C@@H]1O[C@H](COP(=O)(N[C@@H](C)C(=O)OCc2ccccc2)Oc2cccc3ccccc23)[C@@H](O)[C@H]1O (stereo partly specified)", ">", 50),
    ("C[C@H](NP(=O)(OC[C@H]1O[C@@H](n2c(N=[N+]=[N-])c(F)c(=O)[nH]c2=O)[C@H](O)[C@@H]1O)Oc1ccccc1)C(=O)OCc1ccccc1 (stereo partly specified)", "=", 21),
    ("C[C@H](NP(=O)(OC[C@H]1O[C@@H](n2c(I)c(F)c(=O)[nH]c2=O)[C@H](O)[C@@H]1O)Oc1ccccc1)C(=O)OC1CCCCC1 (stereo partly specified)", "=", 2.6),
    ("CCCCCCOC(=O)[C@H](C)NP(=O)(OC[C@H]1O[C@@H](n2c(C)c(F)c(=O)[nH]c2=O)[C@H](O)[C@@H]1O)Oc1ccccc1 (stereo partly specified)", ">", 50),
    ("C[C@H](NP(=O)(OC[C@H]1O[C@@H](n2c(I)c(F)c(=O)[nH]c2=O)[C@H](O)[C@@H]1O)Oc1cccc2ccccc12)C(=O)OCc1ccccc1 (stereo partly specified)", "=", 0.4),
]

###

Each entry below carries its recorded CC50 at 72 h.
# Experimental details: Cytotoxicity against African green monkey Vero cells measured after 3 days by CelltiterGlo luminescence assay
# Assay type: cell-based
# Test parameters: chlorocebus sabaeus
Measurement label: CC50 at 72 h (µM)

# Compound, Unit symbol, Reading qualifier, Endpoint result
data = [
    ("CCCCCCOC(=O)[C@H](C)NP(=O)(OC[C@H]1O[C@@H](n2c(C)c(F)c(=O)[nH]c2=O)[C@H](O)[C@@H]1O)Oc1ccccc1 (some centres undefined)", "µM", ">", 200),
    ("Cc1c(F)c(=O)[nH]c(=O)n1[C@@H]1O[C@H](COP(=O)(N[C@@H](C)C(=O)OCC(C)(C)C)Oc2cccc3ccccc23)[C@@H](O)[C@H]1O (some centres undefined)", "µM", "=", 81.3),
    ("C[C@H](NP(=O)(OC[C@H]1O[C@@H](n2c(N=[N+]=[N-])c(F)c(=O)[nH]c2=O)[C@H](O)[C@@H]1O)Oc1cccc2ccccc12)C(=O)OCc1ccccc1 (some centres undefined)", "µM", "=", 81.8),
    ("[N-]=[N+]=Nc1c(F)c(=O)[nH]c(=O)n1[C@@H]1O[C@H](CO)[C@@H](O)[C@H]1O", "µM", "=", 47),
    ("O=c1cnn([C@@H]2O[C@H](CO)[C@@H](O)[C@H]2O)c(=O)[nH]1", "µM", ">", 10),
    ("CCc1c(F)c(=O)[nH]c(=O)n1[C@@H]1O[C@H](CO)[C@@H](O)[C@H]1O", "µM", ">", 200),
    ("Cc1c(F)c(=O)[nH]c(=O)n1[C@@H]1O[C@H](COP(=O)(N[C@@H](C)C(=O)OCc2ccccc2)Oc2cccc3ccccc23)[C@@H](O)[C@H]1O (some centres undefined)", "µM", ">", 200),
    ("Cc1c(F)c(=O)[nH]c(=O)n1[C@@H]1O[C@H](CO)[C@@H](O)[C@H]1O", "µM", "=", 9.04),
    ("CCc1c(F)c(=O)[nH]c(=O)n1[C@@H]1O[C@H](COP(=O)(N[C@@H](C)C(=O)OCc2ccccc2)Oc2cccc3ccccc23)[C@@H](O)[C@H]1O (some centres undefined)", "µM", "=", 53.1),
]

Where do the numbers come from? From ChEMBL document CHEMBL4219052.
